Below, each of the sequences is paired with its reported protein stability index value.
Assay: protein stability index of a GFP-peptide fusion (yeast GPS) (PSI 1-4); higher = more stable; sorted into four equal gates, so the index is relative within each strain
Conditions: pdr5∆

biosequence | protein stability index
ATTQDQVASIIESFVEL [NUT2] | 2.65
WKATYSNEFKCMSVITA [YGL100W/SEH1] | 1.64
DYIKDEQRHLKRELKRA [RPT3] | 2.06
AKPDARTQAGDIVSIDI [MTW1] | 3.53
RAPKANGALDPKMGVSS [RPO31] | 3.11
DWQMMTSPVTGATEKRK [CSL4] | 2.03
VEDDLVTVQTELNEEKK [SMC2] | 2.55
IGTADIFIRQLKENEEN [BRR2] | 3.1
PEYGRIIASASYDKTVK [YGL100W/SEH1] | 2.28
IVLGVKDLQENLLVLRG [RPO21] | 1.35
QLQGPQWMNEMVERWAN [SOH1] | 3.18
PQQAQMQQAQFQAQQAQ [SNF2] | 3.04
GIKVLPETCLFVSYFGK [YML103C/NUP188] | 2.42
NVDVCVMEIGKDAEYLR [PUP1] | 2.73
LSHGSLEHVLLVPTASF [FAS1] | 1.4
AIKELNYNRIAKICALL [NUT1] | 2.44
SDNISRKYEISFGKIYV [RPB2] | 3.32
RNTYQSAMGKQAMGVFL [RPB2] | 1.63
YDIDEIDHSDESNRQSV [ESC2] | 3.35
RAGMTHEDEKLIPTIFR [PRP8] | 3.28
SDIVLDKKVTLITSEMF [SIN4] | 1.92
DEEYPVKVKVSYQKLLK [PRP8] | 1.86
FPSIPLPINGPITNKER [RPC31] | 2.37
LGLKLACLGNDGILRLY [YGL100W/SEH1] | 1.75
FNNGDDDDYGDEEDPNE [RPC31] | 2.36
STNGLGMCQLYFWHKIW [SNU114] | 1.24
EGLCIVAGSKCWAVRAD [RRP45] | 2.43
QTFNFDSFENYFNQLKP [RPN12] | 2.9
QKTQELNAKYQSLGLDD [ISW2] | 3.26
CAEGIFVVKLDTVDRLI [GAL11] | 3.13
KTWEKVTLDFGNIFADL [SMC2] | 2.92
NIGTPSFNMAQIPQQLY [SNF5] | 2.08
FGNTSTSSAPAQNQGMF [YGL172W/NUP49] | 3.4
KWPEYVRLQRQKKILSI [RPL8B] | 1.16
NFIVHSPMLKRIKITAN [GRR1] | 1.2
QQQQQQQQQTSPPPQTH [SNF5] | 2.86
TMQPPYIQERLKSLNDI [MED11] | 2.86
LGTIESAQAETEALLLE [DIS3] | 3.09
SETREKELESIDVLLEQ [RPB4] | 3.11
KSSAFVIDIGASGCNVT [ARP7] | 2.46

* * *

Test: protein stability index of a GFP-peptide fusion (yeast GPS) (PSI 1-4); higher = more stable; sorted into four equal gates, so the index is relative within each strain
Conditions: doa10∆

biosequence | protein stability index
WQSGLKMYDYEEKEESN [RPN11] | 2.98
SEQKMKEDADLKRMEIL [SIR4] | 2.99
SKKGSLENNIREFPEYF [RPL10] | 2.95

* * *

Experiment: protein stability index of a GFP-peptide fusion (yeast GPS) (PSI 1-4); higher = more stable; sorted into four equal gates, so the index is relative within each strain
Conditions: doa10∆
Below, each of the sequences is paired with its reported protein stability index value.

biosequence | protein stability index
KETTIEKLSSEIENLDK [YIL149C/MLP2] | 2.94
LIIDEIHLLHDDRGPVL [BRR2] | 2.98
LIAEESEDDSESGKVFI [RPB2] | 3.03
EMMKMMQDPQMQQMAKQ [SRP54] | 3.07

* * *

Below, each of the sequences is paired with its reported protein stability index value.
Experiment: protein stability index of a GFP-peptide fusion (yeast GPS) (PSI 1-4); higher = more stable; sorted into four equal gates, so the index is relative within each strain
Conditions: doa10∆
measured-endpoint: protein stability index

biosequence | measured-endpoint | result-value
SLTKDKSIRKDTVEEKK [SIR4] | protein stability index | 3.03
KPSNGKGSRKSSKAATP [SNF12] | protein stability index | 3
SRRPEPKKFGGKGARSR [RPS16A] | protein stability index | 3.06
TITKRNGAFQNSSNLSY [RRP4] | protein stability index | 3.04
KRSTVPLNDGFVDLVEH [YML103C/NUP188] | protein stability index | 3.06
GYIKNNKKIYQWNKLTS [POP6] | protein stability index | 2.93
TNFEILNEMLNTRKNMS [DIS3] | protein stability index | 2.97
RIHTNDNDIMNLGSRTK [SSN3] | protein stability index | 3.08
KYLLTQRVFKPVDITMM [PRP8] | protein stability index | 2.98
FLKEVLSDLSSPVQDWN [YML103C/NUP188] | protein stability index | 2.92
FGPIKVELPTKETVEIG [FAS1] | protein stability index | 3.01
VVTRSKEAFEEEIKQSA [SMC1] | protein stability index | 3.05

* * *

Assay: protein stability index of a GFP-peptide fusion (yeast GPS) (PSI 1-4); higher = more stable; sorted into four equal gates, so the index is relative within each strain
Conditions: ubr1∆

biosequence | protein stability index
NASDALKGRVVEVCLAD [RPS1B] | 3.03
LGLLTPEVVELCQKSPV [FAS2] | 2.93
AERTMSKKETKLQENRT [SMC2] | 3.04
PLSDLKKRSQAKMNAKT [RPC82] | 3.32
FRHHVQIQQQQQKQQQQ [SNF5] | 2.57
NPYNIVPQGKIVALTNA [SMC3] | 3.11
AGNTTTGGGLFGSKPTG [YGL172W/NUP49] | 2.21
GNMGITTEMLDKLMVTS [MED6] | 3.07
RDCIDISIFSTPGSVSL [PRP8] | 3.02
EWQDIIHQREQELQIKR [CSE2] | 3.13
RPKKITGWITQSTPVLL [RPN1] | 2.18
NHVKQFYERLDKSTTQL [MED11] | 2.62
QYESQAPDGSASISLPN [SWP82] | 2.83
DADEKSSNLYETIIEAD [YJR042W/NUP85] | 3.13
SYWQKSYFKNSVIVKFH [LIN1] | 2.35
EKYGKQVYDLLKRFPKM [BRR2] | 3.31
KTLTGKTITLEVESSDT [RPS31] | 1.97
VCMHCGKLLLDEHNELM [RPO21] | 3.14
QPKRNLSRYVKWPEYVR [RPL8A] | 2.99
TETEVEREQPQENKNID [SRB4] | 3.62
GEIGDFFSSDWRFLQIL [POP1] | 2.55

* * *

Assay: protein stability index of a GFP-peptide fusion (yeast GPS) (PSI 1-4); higher = more stable; sorted into four equal gates, so the index is relative within each strain
Conditions: pdr5∆

biosequence | protein stability index
DVQKSSDSSSEDEVKVE [YLR335W/NUP2] | 2.87
ATYSNEFKCMSVITAQQ [YGL100W/SEH1] | 1.48
FPPPSVAARAEILRIHS [RPT6] | 2.5
VTQNVLGLEYIIRLLPI [SRB8] | 1.68
ELDEHTTQIDLFRIFSM [BRR2] | 1.56
RQDGSYTYHSTNKDNKA [ARP9] | 2.97
RMRVSVLEKYEVIGYIA [SSN3] | 1.56
TKFKGGKRQLMKAVGEY [SEC65] | 3.11
KIHLYEKKLEDYCRILS [YGL172W/NUP49] | 2.34
LSDRANKNQDAFEAELS [ARP9] | 3.13
KTDPAGYYVGYKATATG [SCL1] | 3.24
DILQITKKPLMVKNVKP [SIR4] | 2.72
SNAAGADDAISMHLLKD [SRB8] | 2.49
SVKFTHIAHTLPEKVNF [SSN2] | 2.28
RDVELSSDELKVIEEQL [SMC4] | 3.25
KLLFQELMAMNITPRLY [RPB2] | 1.39
VVTRSKEAFEEEIKQSA [SMC1] | 3.07
NRQVMHKMGVERSSKRL [SIR3] | 3.49
RHMALLVDVMTTQGGLT [RPO21] | 2.38
SQSLGVSNKFEKIFHYG [PUP3] | 3.5
NAEKTGKRQVLLRPSSK [RPS22B] | 2.93
PDRQSMDSRVAHGNILI [SRB5] | 3.12
LLISLNILFSLWKLLST [YLR018C/POM34] | 1.25
KRCVGVILGDANSSTIR [RPN8] | 2.77
KAMSSRAGVSQVLNRYT [RPB2] | 3.21
AIRKNGQIDFWYQFSNS [SIN4] | 2.08
VLYQSNATHDEDEFIVQ [SWP82] | 3.14
IRKLVKNGTIVKKAVTV [RPL19A] | 3.08
SKKGSLENNIREFPEYF [RPL10] | 3.23
RCMMAAQYFYSGAYSYP [DIS3] | 2.31
PQTTQMFQSQSQLQPQP [YDL088C/ASM4] | 2.5
NSTSKNTLLQQQNYSKV [SWI1] | 2.86
KSEFDDLSLNIHPIPSV [YMR129W/POM152] | 2.92
QRQLLVQQQQQQQLRNQ [SNF5] | 2.54
GPRNTEEKGWVPVTKLG [RPS2] | 3.46
MSDAVTIRTRKVISNPL [RPS24A] | 2.69
KEAVFKSLGVKSLGGGA [FAS2] | 3.36
KVQDAIEEEIFDDSSRI [LIN1] | 3.19
KKFLRVRIFTKIESEDD [SRB4] | 1.26
PSFMLKHHQLFYMLNAG [RPN1] | 1.53
FTNGVLAVTNLLIISCI [YML031W/NDC1] | 1.85
